- measurement_description: Plasma pharmacokinetics, part 2 (IPF patients)
- Format: in vivo, human
- conditions_used: human, plasma, inhaled or intranasal, inhaled; overall value; read-out: plasma half-life (T1/2) (converted)
quantity_name: half-life (h)
Give a bare numeral; the unit h is implied.

What does the record list as half-life for OC[C@H]1O[C@@H](S[C@@H]2O[C@H](CO)[C@H](O)[C@H](n3cc(-c4cccc(F)c4)nn3)[C@H]2O)[C@H](O)[C@@H](n2cc(-c3cccc(F)c3)nn2)[C@H]1O ?
8

====

- measurement_description: Plasma pharmacokinetics, part 1 (healthy subjects)
- Type: in vivo, human
- conditions_used: human, inhaled or intranasal, single inhaled 10 mg, mean±SD
quantity_name: AUC(0-inf) (ng·h/mL)
Give a bare numeral; the unit ng·h/mL is implied.

What does the record list as AUC(0-inf) for OC[C@H]1O[C@@H](S[C@@H]2O[C@H](CO)[C@H](O)[C@H](n3cc(-c4cccc(F)c4)nn3)[C@H]2O)[C@H](O)[C@@H](n2cc(-c3cccc(F)c3)nn2)[C@H]1O [TD139] ?
184

====

- measurement_description: Plasma pharmacokinetics, part 1 (healthy subjects)
- Assay type: in vivo, human
- conditions_used: human, inhaled or intranasal, single inhaled 20 mg, mean±SD
quantity_name: half-life
Give me the value, and tack the unit on after it.

What does the record list as half-life for OC[C@H]1O[C@@H](S[C@@H]2O[C@H](CO)[C@H](O)[C@H](n3cc(-c4cccc(F)c4)nn3)[C@H]2O)[C@H](O)[C@@H](n2cc(-c3cccc(F)c3)nn2)[C@H]1O [TD139] ?
1.31 h

====

- measurement_description: Plasma pharmacokinetics, part 2 (IPF patients)
- Assay type: in vivo, human
- conditions_used: human, plasma, inhaled, 10 mg, IPF patients; Day 14; 10 mg once daily; mean±SD; read-out: Cmin (plasma concentration at 24 h post-dose)
quantity_name: concentration at 24 h
Give me the value, and tack the unit on after it.

What does the record list as concentration at 24 h for OC[C@H]1O[C@@H](S[C@@H]2O[C@H](CO)[C@H](O)[C@H](n3cc(-c4cccc(F)c4)nn3)[C@H]2O)[C@H](O)[C@@H](n2cc(-c3cccc(F)c3)nn2)[C@H]1O ?
14.7 ng/mL

====

- measurement_description: Plasma pharmacokinetics, part 2 (IPF patients)
- Format: in vivo, human
- conditions_used: human, plasma, inhaled, 3 mg, IPF patients; plasma; Day 1; 3 mg once daily; mean±SD
quantity_name: AUC(0-inf) (ng·h/mL)
Give a bare numeral; the unit ng·h/mL is implied.

What does the record list as AUC(0-inf) for OC[C@H]1O[C@@H](S[C@@H]2O[C@H](CO)[C@H](O)[C@H](n3cc(-c4cccc(F)c4)nn3)[C@H]2O)[C@H](O)[C@@H](n2cc(-c3cccc(F)c3)nn2)[C@H]1O [TD139] ?
69

====

- measurement_description: Plasma pharmacokinetics, part 1 (healthy subjects)
- Assay type: in vivo, human
- conditions_used: human, inhaled or intranasal, single inhaled 10 mg, mean±SD
quantity_name: half-life (h)
Give a bare numeral; the unit h is implied.

What does the record list as half-life for OC[C@H]1O[C@@H](S[C@@H]2O[C@H](CO)[C@H](O)[C@H](n3cc(-c4cccc(F)c4)nn3)[C@H]2O)[C@H](O)[C@@H](n2cc(-c3cccc(F)c3)nn2)[C@H]1O ?
1.19
